Assay: CREB reporter modulators without forskolin, primary screen, cell-based, PC12, CRE-LacZ reporter, unstimulated (AID 1145)
Conditions: no forskolin, luminescence, 4.5 h, higher = more signal, called active from +8 up or from −8 down
z-score values by entry
The response must contain the number and no unit.

Some solved entries appear below for comparison.
Molecule | z-score
COCCOC(=O)N1C(=O)[C@@]2(c3ccccc31)[C@H](C(=O)N1CCc3cc(OC)c(OC)cc3C1)[C@H]1C(=O)O[C@H](c3ccccc3)[C@H](c3ccccc3)N1[C@@H]2c1ccccc1OCCO | -0.183
CN1C(=O)C2C=CC(C(O)c3ccc(N(C)C)cc3)N(Nc3ccc([N+](=O)[O-])cc3[N+](=O)[O-])C2C1=O (stereo not drawn) | 1.03

-- ask Returns the measured z-score for the input molecule. Input: `C=CCOC(=O)[C@@H]1[C@H]2C(=O)O[C@H](c3ccccc3)[C@H](c3ccccc3)N2[C@H](c2ccc(OCCOC(=O)[C@H]3C[C@H]4C(=O)N5CCC[C@H]5C(=O)N4[C@H]3c3ccc(O)cc3)cc2)[C@@]12C(=O)Nc1ccccc12`
-- reply -0.402

----------
Test: RPMI8226 myeloma cell viability, profiling panel, resazurin fluorescence, basal, 24 h, PK04 Diversity Set (AID 1180);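 note: RPMI8826 multiple myeloma cell line at 5000 cells per well; test concentration not given here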
Conditions: higher = more signal
Threshold check on z-score: at or above 0.2 gives 1, strictly below gives -1.

Look over these answered cases.
Molecule | Class
CCN1C(C)=C(C(=O)OC)[C@@H](c2ccccc2)N2C(=O)[C@@]3(C(=O)OC)O[C@@]12[C@@H]1C(=O)CCC[C@@H]13 | 1
C=CCN1C(=O)[C@@]2(Cc3ccccc3)N=C(c3ccc(OCCCO)cc3)O[C@H]2c2ccccc21 | -1
C[C@H]1C2[C@H](Cc3ccccc3)NC(=O)[C@]23C(=O)N[C@H](Cc2ccccc2)C(=O)N[C@@H](Cc2ccccc2)C(=O)NC/C=C\C/C=C/C3[C@@H]2O[C@]12C (some centres not stated) | 1
COCC(=C=CC[C@H](O)c1ccc(OCCO)cc1)C[C@H](O)c1ccccn1 | 1
[N-]=[N+]=NCc1ccccc1C[C@]1(C(N)=O)N=C(c2ccc(OCCCO)cc2)O[C@H]1c1ccccc1CN=[N+]=[N-] | -1

-- ask Determine whether measured z-score meets or exceeds 0.2 for C=C(C)[C@@H]1CC=C(C(O)C2C=CC3C(=O)NC(=O)C3N2Nc2ccccn2)CC1 (some centres not stated)
-- reply -1

-- ask In plain terms: is recorded z-score at least 0.2 for `COCCOC(=O)N1C(=O)[C@@]2(c3cc(C#CCNC(N)=O)ccc31)[C@H](c1ccccc1OCCO)N1[C@H](c3ccccc3)[C@H](c3ccccc3)OC(=O)[C@H]1[C@@H]2C(=O)NC[C@H](O)c1ccccc1` ?
-- reply -1

----------
Assay: E. coli growth modulation, two-sided OD650, primary screen, E. coli filamentation project, strain DRC41, 24 h (AID 1093);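 note: MC1000 strain lacking acrAB efflux and sulA so SOS filamentation is blocked; test concentration not given here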
Settings: OD650, 24 h, higher = more signal, called active from +8 up or from −8 down
Recorded z-score for the following compounds
Please respond with just the number, no unit label.

Guide cases for z-score, answers given:
Compound | Readout | Measured
C=CCC(OC(C)=O)[C@@H]1[C@@H](N(Cc2ccc(-c3ccccc3)cc2)C(=O)c2ccc(-c3ccccc3)cc2)c2cc(OCCCO)ccc2N1C(=O)Cc1ccc(OC)cc1 (some centres undefined) | z-score | -0.685
C=CC[C@]1(C(=O)O)N=C(c2ccc(OCCCO)cc2)O[C@H]1c1ccccc1N=[N+]=[N-] | z-score | 1.32
COc1ccc([Si](C)(C)[C@@H]2[C@@H](CCO)O[C@]3(C(=O)N(Cc4ccc(NC(=O)[C@H](C)O)cc4)c4ccccc43)[C@H]2C)cc1 | z-score | 1.78

-- ask What does the data say about its z-score? Entry: `CO[C@H]1COC(=O)[C@H](C)NC(=O)CC=C[C@@H](C)[C@H](NS(=O)(=O)c2ccc(C)cc2)COC(=O)[C@@H](OCc2ccccc2)C=C[C@@H]1C`
-- reply 0.176
